Attribution: PubChem BioAssay

assay: viability gain of MRP-1-high H69AR cells under doxorubicin, pilot screen, MRP-1 activator project, CellTiter-Glo, duplicate (AID 807); conditions: H69AR viability with doxorubicin, CellTiter-Glo luminescence; at 10 µM; hits give high values;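 further: compound pretreatment 18-22 h then 72 h combined with doxorubicin; 0% = doxorubicin alone and 100% = vehicle without doxorubicin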
Measured viability increase, listed per entry for reference.
metric: viability increase (%)

Cc1nn(-c2ccc(Cl)cc2)c2sc(C(=O)N3CCN(C(=O)c4ccco4)CC3)cc12 = -5.55
CCN1CCN(C(=O)Nc2ccc(Cc3ccc(NC(=O)N4CCN(CC)CC4)cc3)cc2)CC1 = -2.42
O=C(O)CC1SC(=Nc2ccccc2)N(c2ccccc2)C1=O (configuration not stated) = -1.21
Cc1ccc(O)c(-c2cc(C(F)(F)C(F)F)nc(-c3ccccc3)n2)c1 = -5.33
CSc1nc2sc3c(c2c(=O)n1C)CCCC3 = -0.98
COc1cc(C(=O)Nc2cc(-c3nc4cc(C)ccc4o3)ccc2C)cc(OC)c1OC = -2.34
COc1cccc(-c2nn(C)c3sc(C(=O)N4CCOCC4)cc23)c1 = -2.47
O=C(NCCn1cc(SCC(=O)N2CCOCC2)c2ccccc21)c1ccccc1 = 0.4
O=C(CN(C1CCCCC1)S(=O)(=O)c1ccc(F)cc1)NCCCO = -0.51
Cc1ccccc1-n1c(Cn2c(=O)sc3ccccc32)nnc1SCC(=O)NCC1CCCO1 (configuration not stated) = 0
Cc1cc(NC(=O)CN2CCCCC2C)nc2c1c(=O)oc1ccccc12 (configuration not stated) = -0.4
CC1=C(C(=O)OCCOc2ccccc2)C(c2ccc(C)o2)C2=C(CC(C)(C)CC2=O)N1 (configuration not stated) = -0.88
CC(=O)c1coc2ccc(OCCN3CCCCC3)cc12 = -3.83
O=C(COC(=O)c1ccco1)Nc1ccc(Br)cc1 = -1.81
COc1cccc(C2CC(c3ccccc3C)n3nc(N)nc3N2)c1 (configuration not stated) = -2.32
CCOC(=O)C(C)Sc1ncnc2nc[nH]c12 (configuration not stated) = -1.35
COc1ccc(C2C(C(=O)Nc3ccccc3OC)=C(C)Nc3ncnn32)cc1 (configuration not stated) = -3.68
Cc1[nH]c2ccccc2c1Cc1nnc(SCC(N)=O)o1 = -0.41
COc1ccccc1N1CCN(C(=O)c2sc3nc(-c4ccc(F)cc4)cn3c2C)CC1 = -1.57
COc1ccccc1CC1(C)NC(=O)N(CC(=O)N2CC(C)OC(C)C2)C1=O (configuration not stated) = -0.71
COc1cccc(-n2nnc3c(=O)n(C/C=C/c4ccccc4)cnc32)c1 = 0.57
CC(CC1C(C#N)=C(N)OC2=C1C(=O)CCC2)c1ccccc1 (configuration not stated) = -1.89

----------
assay: viability gain of MRP-1-high H69AR cells under doxorubicin, pilot screen, MRP-1 activator project, CellTiter-Glo, duplicate (AID 807); conditions: H69AR viability with doxorubicin, CellTiter-Glo luminescence; at 10 µM; hits give high values;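 further: compound pretreatment 18-22 h then 72 h combined with doxorubicin; 0% = doxorubicin alone and 100% = vehicle without doxorubicin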
metric: viability increase (%)

COc1ccccc1-c1nnc(SCC(=O)Nc2ccc(Cl)cc2Cl)o1 = 2.61
CC(c1ccccc1F)n1cc(C(=O)NCc2ccncc2)nn1 (configuration not stated) = -0.75
C=C(C)CSc1nnc(-c2cccc(Cl)c2)n1N = 0.23
CCCC(C(=O)N1CCOCC1)N1C(=O)C2C3C=CC(C3)C2C1=O (configuration not stated) = 0.84
COc1cc(NC(=O)CCCC(=O)OCC(F)(F)C(F)F)nc(OC)n1 = -0.22
CCOC(=O)Cn1c(C)nc2ccccc21 = -1.63
CC(=O)c1ccc(OCC(O)Cn2nnc3ccccc32)cc1 (configuration not stated) = 0.2
O=c1c2ccccc2c2ccccc2c(=O)n1CC1CCCO1 (configuration not stated) = -2.2
C=CCNc1ncnc2c1cnn2-c1cccc(C)c1 = -1.03
Cc1noc(C(=O)N2CCN(c3ccc(F)cc3)CC2)c1Cl = 1.26
COc1ccc(C(=O)N2CCN(c3ccc(C)cc3)CC2)cc1OC = -1.27
CCN1CCN(C(c2cccs2)C(C)NC(=O)C(C)C)CC1 (configuration not stated) = -2.01
O=C1CN(C(=O)c2ccc(Br)o2)C(c2ccccc2)c2cc(F)ccc2N1 (configuration not stated) = -5.91
Cn1c(=O)c2c(SCc3cccnc3)nc(C3CC3)nc2n(C)c1=O = 0.27
Cc1cc(C)c(S(=O)(=O)Nc2nnc(C)s2)c(C)c1 = 3.99
CCOc1ccc2nc(N3CCCC(C(=O)N4CCN(CC)CC4)C3)sc2c1 (configuration not stated) = 0.55
CC(=O)OCCn1c(=O)c2cc3c(=O)n(CCOC(C)=O)c(=O)c3cc2c1=O = -0.09
O=S(=O)(c1cc(Cl)ccc1Cl)N1CCN(Cc2ccc3c(c2)OCO3)CC1 = 0.21
O=C(NCc1cccnc1)c1ccc(CS(=O)(=O)c2ccc(Br)cc2)o1 = -1.28
Cn1c(=O)c2c(nc(Sc3ncccn3)n2Cc2ccc(Cl)cc2)n(C)c1=O = -2.38
CCCc1c(C(=O)OCC)[nH]c2c1C(=O)CCC2 = -2.07
COc1ccc(OC)c(C(C)NC(=O)c2ccco2)c1 (configuration not stated) = -5.99
c1ccc(C2NCCn3cccc32)cc1 (configuration not stated) = -2.82
O=C(NCCN1C(=O)C2C3C=CC(C3)C2C1=O)Nc1ccc(Br)cc1 (configuration not stated) = -1.13
Cc1nc(N2CCN(C(=O)c3ccco3)CC2)c2c3c(sc2n1)CCC3 = -1.12
Cc1ccc2c(c1)N(CCCC(=O)NCCCN1CCCC1=O)C(=O)CO2 = -2.09
COc1cc(OC)cc(-c2nc(-c3ccc(Br)cc3)no2)c1 = 1.86
COc1ccc(-n2c(Cn3c(=O)sc4ccccc43)nnc2SC)cc1 = -2.26
Cc1cc(C)n(-c2ncnc3sc4c(c23)CC(C)CC4)n1 (configuration not stated) = -0.82
CCOc1ccc(OCC)c(Nc2cc(C)nc3ncnn23)c1 = -3.71
CCOc1ccccc1CNS(=O)(=O)c1ccc2c(c1)oc(=O)n2C = -1.75
COc1ccc(N(CC(=O)Nc2ccc3c(c2)OCO3)S(C)(=O)=O)c(OC)c1 = -2.19
CC1(C)Oc2ccc3ccc(=O)oc3c2/C(=C/Nc2ccccn2)C1=O = -1.39
CC(=O)COC(=O)c1cccc(N2C(=O)C3C4C=CC(C4)C3C2=O)c1 (configuration not stated) = -1.07
COC(=O)c1c(C)oc2ccc(OC(=O)c3cccs3)cc12 = 1.81
c1ccc2cc3[nH]c(CN4CCCCC4)nc3cc2c1 = -2.94
CCCCCn1c(CNC(C)=O)nc2ccccc21 = 0.03
CCCCCn1c(=O)[nH]c2cc(C(=O)O)ccc2c1=O = -1.3
Clc1ccc(-c2nc(-c3ccccn3)no2)cc1Cl = -4.17
Cc1cc(-c2ccco2)n(CC(=O)NCCN(C)C)n1 = -0.48
COc1cc(-c2nc3cnccn3c2Nc2ccccc2)ccc1O = -5.59
CC(Oc1ccccc1)C(=O)OCC(=O)NC(=O)NCc1ccco1 (configuration not stated) = -1.78
O=C(Nc1c(F)c(F)c(F)c(F)c1F)C1CCCCC1 = -1.05
COc1ccc(C2(CNC(C)=O)CCOCC2)cc1OC = 1.21
O=C(Nc1ccc(N2CCCC2)c(Cl)c1)c1ccco1 = 0.68
CCn1cc(C(=O)NCCCN2CC(C)CC(C)C2)c(=O)c2cc(S(=O)(=O)N(C)C)ccc21 (configuration not stated) = -2.78
Cc1ccc(C)c(NC(=O)CSc2nnc(-c3ccccc3)n2N)c1 = -1.93
